Reported switch fluorescence ratio values for the following sequences.
# Tested on: ATP;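 note: ATP exposure 15 min at 22 °C before imaging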
# experiment-description: switch fluorescence ratio, 500 uM ATP over buffer (Cy3 cluster intensity, sum of 5 cycles each) (fold (ratio)); higher = stronger signal-on switching upon ATP binding; sequences stand for … in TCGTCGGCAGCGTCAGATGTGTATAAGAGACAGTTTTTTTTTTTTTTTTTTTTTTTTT…TC
# condition-description: aptamer strand: ATP DNA aptamer (quencher-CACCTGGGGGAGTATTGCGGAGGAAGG + anchor), 100 nM annealed; ATP concentration: 500 uM
measurement-kind: switch fluorescence ratio

> print(dat)
    biosequence  value.observed
 1   GATCGGGGAC            1.03
 2   TTACTATGTA            1.02
 3   GCAATAGGGT            1.37
 4   CAGTAAGAAT           0.981
 5   GACAAGGGGG           0.981
 6   TAGGACTCAT            1.01
 7   GCCGGGATGC             1.1
 8   TATTGGGGAG            1.13
 9   GAGCCAGGCA           0.974
10   CACGATTTGG           0.995
11    GGTGTCGTG            0.98

* * *

Reported switch fluorescence ratio values for the following sequences.
# System: ATP;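 note: ATP exposure 15 min at 22 °C before imaging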
# experiment-description: switch fluorescence ratio, 500 uM ATP over buffer (Cy3 cluster intensity, sum of 5 cycles each) (fold (ratio)); higher = stronger signal-on switching upon ATP binding; sequences stand for … in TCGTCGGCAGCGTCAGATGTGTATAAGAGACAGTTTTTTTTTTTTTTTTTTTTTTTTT…TC
# condition-description: aptamer strand: ATP DNA aptamer (quencher-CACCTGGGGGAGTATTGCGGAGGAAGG + anchor), 100 nM annealed; ATP concentration: 500 uM
measurement-kind: switch fluorescence ratio

> print(dat)
    biosequence  target.desc           measurement.kind  value.observed
 1   GGGTGCTGTG          ATP  switch fluorescence ratio               1
 2   CACTAGTGGG          ATP  switch fluorescence ratio               1
 3    AAATTTTCC          ATP  switch fluorescence ratio            1.34
 4   CATGCCAGAA          ATP  switch fluorescence ratio           0.981
 5   TTTTGATAAT          ATP  switch fluorescence ratio           0.991
 6   TTTTTAATTA          ATP  switch fluorescence ratio            1.01
 7   AAAGACAGTG          ATP  switch fluorescence ratio            1.01
 8   CGTCTGGCGG          ATP  switch fluorescence ratio            1.01
 9   GTGTTCGGGC          ATP  switch fluorescence ratio            1.02
10   TGACTTGGGT          ATP  switch fluorescence ratio           0.991
11   CGTAGTTTAT          ATP  switch fluorescence ratio            1.07
12   TAGGGGAGGC          ATP  switch fluorescence ratio           0.984
13   GGGTTTAGAA          ATP  switch fluorescence ratio           0.979
14   TGCTATATTA          ATP  switch fluorescence ratio           0.992
15   CGGTGTATTC          ATP  switch fluorescence ratio           0.988
16   TTATTCATGT          ATP  switch fluorescence ratio           0.984
17   TTCATGGAGT          ATP  switch fluorescence ratio           0.983
18   TTGGTAGTTT          ATP  switch fluorescence ratio            1.02
19   ATGTATGATA          ATP  switch fluorescence ratio           0.967
20   GGTTTTTTTT          ATP  switch fluorescence ratio           0.992
21   TTCCCGATCA          ATP  switch fluorescence ratio            1.01
22   CGTGGGAGAA          ATP  switch fluorescence ratio            1.09
23   CCTGGGGTTT          ATP  switch fluorescence ratio            1.09
24   GCAGGCTTGG          ATP  switch fluorescence ratio            1.01
25   CAGGGTTAAT          ATP  switch fluorescence ratio            1.01
26   ATCGATGCTT          ATP  switch fluorescence ratio           0.979
27   TGATTGGTTC          ATP  switch fluorescence ratio           0.979
28   TTTATAGGTG          ATP  switch fluorescence ratio            1.14
